Ref: patent US12581252B2

- SYSTEM_TESTED: H1047R PIK3CA enzyme (Homo sapiens, UniProt P42336, H1047R)
- Sequence (P42336 whole entry H1047R): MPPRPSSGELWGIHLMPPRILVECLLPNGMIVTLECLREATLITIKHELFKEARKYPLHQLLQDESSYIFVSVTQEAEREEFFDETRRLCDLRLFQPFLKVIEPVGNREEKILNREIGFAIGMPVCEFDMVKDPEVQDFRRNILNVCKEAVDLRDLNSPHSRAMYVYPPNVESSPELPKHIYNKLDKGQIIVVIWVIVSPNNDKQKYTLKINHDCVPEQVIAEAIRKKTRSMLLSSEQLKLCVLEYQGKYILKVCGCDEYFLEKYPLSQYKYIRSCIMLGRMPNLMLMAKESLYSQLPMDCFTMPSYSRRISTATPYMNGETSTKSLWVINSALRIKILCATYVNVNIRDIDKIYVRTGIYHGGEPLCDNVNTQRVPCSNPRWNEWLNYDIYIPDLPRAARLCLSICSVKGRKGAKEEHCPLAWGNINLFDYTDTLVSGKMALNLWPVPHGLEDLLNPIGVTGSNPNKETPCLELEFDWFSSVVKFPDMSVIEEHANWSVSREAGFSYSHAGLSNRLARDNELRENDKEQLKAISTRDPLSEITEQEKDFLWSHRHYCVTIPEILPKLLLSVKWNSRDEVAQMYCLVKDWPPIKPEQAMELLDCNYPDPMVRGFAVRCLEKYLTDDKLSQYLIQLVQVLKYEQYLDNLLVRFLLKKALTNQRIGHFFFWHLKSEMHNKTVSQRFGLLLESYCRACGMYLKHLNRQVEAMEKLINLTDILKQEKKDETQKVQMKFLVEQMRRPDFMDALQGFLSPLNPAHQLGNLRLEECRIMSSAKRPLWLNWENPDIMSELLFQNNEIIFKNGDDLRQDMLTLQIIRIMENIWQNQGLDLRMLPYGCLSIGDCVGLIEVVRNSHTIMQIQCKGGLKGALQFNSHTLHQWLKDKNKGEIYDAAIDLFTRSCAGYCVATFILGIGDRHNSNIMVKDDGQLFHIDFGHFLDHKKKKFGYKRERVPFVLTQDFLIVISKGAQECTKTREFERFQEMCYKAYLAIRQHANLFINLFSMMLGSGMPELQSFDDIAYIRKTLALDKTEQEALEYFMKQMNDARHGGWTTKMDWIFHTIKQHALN
- Sequence (P27986 whole entry partner): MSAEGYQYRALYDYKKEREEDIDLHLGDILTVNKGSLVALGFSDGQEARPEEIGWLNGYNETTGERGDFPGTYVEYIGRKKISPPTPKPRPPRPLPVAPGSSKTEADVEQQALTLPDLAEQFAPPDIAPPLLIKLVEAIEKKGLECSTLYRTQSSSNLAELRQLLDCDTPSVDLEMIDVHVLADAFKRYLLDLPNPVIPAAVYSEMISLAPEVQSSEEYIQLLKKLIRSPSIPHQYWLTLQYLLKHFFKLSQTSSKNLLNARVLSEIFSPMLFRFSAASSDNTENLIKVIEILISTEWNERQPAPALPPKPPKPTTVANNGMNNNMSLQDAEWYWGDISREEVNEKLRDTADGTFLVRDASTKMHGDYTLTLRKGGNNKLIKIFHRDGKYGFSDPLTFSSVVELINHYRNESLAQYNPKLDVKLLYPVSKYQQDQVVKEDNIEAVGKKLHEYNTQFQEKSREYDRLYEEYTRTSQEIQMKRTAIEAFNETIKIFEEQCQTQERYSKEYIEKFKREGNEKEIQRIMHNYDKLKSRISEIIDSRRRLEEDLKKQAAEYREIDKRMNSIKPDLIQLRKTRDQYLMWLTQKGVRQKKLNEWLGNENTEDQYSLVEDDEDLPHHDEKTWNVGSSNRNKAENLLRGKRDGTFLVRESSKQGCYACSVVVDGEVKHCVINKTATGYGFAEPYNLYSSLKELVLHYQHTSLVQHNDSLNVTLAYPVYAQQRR
- TEST: ADP-Glo Biochemical PIK3CA Kinase Assay
pIC50: −log10 of the molar value.
MEASURED_METRIC: pIC50

// solved cases for pIC50 follow
COMPOUND	pIC50
C[C@H](C#N)Cn1cc(-c2cc(NC(=O)N3C[C@H](O)c4cc(F)ccc43)c3c(c2)C(=O)N[C@@H]3c2cc(F)ccc2Cl)cn1 (single isomer, unassigned)	6.30 to 7.00
O=C(Nc1cc(C2COC2)cc2c1[C@H](c1cc(F)ccc1Cl)NC2=O)c1cc(F)cc(C(F)(F)F)c1	≥ 7.00
O=C(Nc1cc(-c2cn3ncnc3cn2)cc2c1[C@@H](c1cc(F)ccc1C(F)F)NC2=O)c1cc(F)cc(Cl)c1 (single isomer, unassigned)	5.00 to 6.00
O=C1N[C@H](c2cc(F)ccc2Cl)c2c(NC(=O)N3C[C@H](O)c4cc(F)c(F)cc43)cccc21 (single isomer, unassigned) [Compound I-2292]	4.00 to 5.00
CC(=O)COc1cc(NC(=O)c2cc(F)cc(C(F)(F)F)c2)c2c(c1)C(=O)NC2c1cc(F)ccc1Cl (stereo not drawn)	≥ 7.00

Consider the additional compound presented here.
Tell me the measured pIC50 of CCOc1ncc(C(=O)Nc2cccc3c2C(c2ccccc2C)NC3=O)cc1F (stereo not drawn) , please.
4.00 to 5.00

* * *

- SYSTEM_TESTED: H1047R PIK3CA enzyme (Homo sapiens, UniProt P42336, H1047R)
- TEST: ADP-Glo Biochemical PIK3CA Kinase Assay
MEASURED_METRIC: IC50

// solved cases for IC50 follow
COMPOUND	RESULT
O=C1NC(c2cc(F)ccc2Cl)c2c(NC(=O)N3CCCC3c3ccccc3)cc(Br)cc21 (stereo not shown) [Compound I-769]	1 to 10 µM
Cc1ccccc1C1NC(=O)c2cccc(NC(=O)c3ncc4c(F)cc(F)cn34)c21 (stereo not shown) [Compound I-180]	10 to 100 µM
CC[C@]1(O)CN(C(=O)Nc2cccc3c2[C@@H](c2cc(F)ccc2Cl)NC3=O)c2ccc(F)cc21 (single isomer, unassigned) [Compound I-2460]	1 to 10 µM
O=C1NC(c2cc(F)ccc2Cl)c2c(NC(=O)C3CCCc4ccccc43)cc(Br)cc21 (stereo not shown) [Compound I-631]	1 to 10 µM
CN1CCN(C(=O)Nc2cc(Br)cc3c2C(c2cc(F)ccc2Cl)NC3=O)CC1(C)C (racemic) [Compound I-685]	10 to 100 µM

Batch lookup, IC50 per entry.
1. Cc1ccccc1[C@@H]1NC(=O)c2cc(CO)cc(NC(=O)c3nsc4ccccc34)c21 [Compound I-306]
2. O=C(Nc1cc(CN2CCn3cnnc3C2)cc2c1C(c1cc(F)ccc1Cl)NC2=O)c1cc(F)cc(C(F)(F)F)c1 (stereo not shown) [Compound I-1401]

≤ 0.1 µM
≤ 0.1 µM

* * *

- SYSTEM_TESTED: H1047R PIK3CA enzyme (Homo sapiens, UniProt P42336, H1047R)
- TEST: ADP-Glo Biochemical PIK3CA Kinase Assay
- Protocol: Compounds to be assayed were plated in 16 doses of 1:2 serial dilutions (20 nL volume each well) on a 1536-well plate, and the plate warmed to room temperature. […] To the well was added 1 μL of 200 μM ATP and 20 μM of diC8-PIP2 in Substrate Assay Buffer (50 mM HEPES pH7.4, 50 mM NaCl, 5 mM DTT and 0.03% CHAPS) to start the reaction, and the plate was shaken for 10 seconds, then spun briefly at 1500 rpm, and then incubated for 60 minutes at room temperature. […]
pIC50: −log10 of the molar value.
MEASURED_METRIC: pIC50

Batch lookup, pIC50 per entry.
1. O=C(Nc1cc(Br)cc2c1C(c1cc(F)ccc1Cl)NC2=O)c1cccc(OC(F)(F)F)c1 (stereo not shown)
2. CC(C)(O)C(O)c1cc(NC(=O)c2cc(F)cc(C(F)(F)F)c2)c2c(c1)C(=O)NC2c1cc(F)ccc1Cl (racemic)
3. O=C1NC(c2cc(F)ccc2Cl)c2c1cccc2-n1cc2ccccc2cc1=O (stereo not shown)
4. O=C(Nc1cc(-c2ccc3nccn3c2)cc2c1[C@H](c1cc(F)ccc1Cl)NC2=O)c1cc(F)cc(C(F)(F)F)c1
5. COc1cc(C(=O)Nc2cc(Br)cc3c2C(c2cc(F)ccc2Cl)NC3=O)cc(Cl)c1F (stereo not shown)
6. O=C(Nc1cc(-c2ccc3ncnn3c2)cc2c1[C@H](c1cc(F)ccc1Cl)NC2=O)c1cc(F)cc(OC(F)(F)F)c1 (stereo in doubt)
7. O=C(Nc1cc(-c2ccn3ccnc3c2)cc2c1C(c1cc(F)ccc1Cl)NC2=O)c1cc(F)cc(C(F)(F)F)c1 (stereo not shown)

["6.00 to 6.30", "6.30 to 7.00", "4.00 to 5.00", "≥ 7.00", "6.30 to 7.00", "≥ 7.00", "≥ 7.00"]

* * *

- SYSTEM_TESTED: H1047R PIK3CA enzyme (Homo sapiens, UniProt P42336, H1047R)
- TEST: ADP-Glo Biochemical PIK3CA Kinase Assay
pIC50: −log10 of the molar value.
Provide the recorded pIC50 for the entries that follow.

// solved cases for pIC50 follow
COMPOUND	SYSTEM_TESTED	pIC50
O=C1N[C@H](c2cc(F)ccc2Cl)c2c(NC(=O)N3C[C@](O)(C(F)(F)F)c4cc(F)ccc43)cc(-n3ccccc3=O)cc21 (single isomer, unassigned)	H1047R PIK3CA enzyme (Homo sapiens, UniProt P42336, H1047R)	5.00 to 6.00
O=C(Nc1cc(Br)cc2c1[C@@H](c1cc(F)c(F)cc1Cl)NC2=O)c1cc(F)cc(C(F)(F)F)c1	H1047R PIK3CA enzyme (Homo sapiens, UniProt P42336, H1047R)	5.00 to 6.00

Consider the additional compound presented here.
Request - read-out pIC50 | tested on H1047R PIK3CA enzyme (Homo sapiens, UniProt P42336, H1047R) | compound N#CCc1cc(NC(=O)N2C[C@@H](O)c3cc(F)ccc32)c2c(c1)C(=O)N[C@H]2c1cc(F)ccc1Cl (single isomer, unassigned)
≥ 7.00

* * *

- SYSTEM_TESTED: H1047R PIK3CA enzyme (Homo sapiens, UniProt P42336, H1047R)
- TEST: ADP-Glo Biochemical PIK3CA Kinase Assay
Provide the recorded IC50 for the entries that follow.

MOLECULE	IC50
N#CCCc1cc(NC(=O)c2cc(F)cc(C(F)(F)F)c2)c2c(c1)C(=O)N[C@H]2c1cc(F)ccc1Cl (stereo in doubt)	≤ 100 nM
C[C@@]1(O)CN(C(=O)Nc2cc(Br)cc3c2C(c2cc(F)ccc2Cl)NC3=O)c2ccccc21 (single isomer, unassigned)	≤ 100 nM
COc1ccc(NC(=O)c2csc3ccccc23)c2c1C(=O)NC2c1ccccc1C (centres unmarked)	≤ 100 nM

Batch lookup, IC50 per entry.
1. O=C(Nc1cc(-c2ccnc(C(F)F)c2)cc2c1[C@H](c1cc(F)ccc1Cl)NC2=O)c1cc(F)cc(C(F)(F)F)c1
2. O=C(Nc1cc(Br)cc2c1C(c1cc(F)ccc1Cl)NC2=O)c1cccc(SC(F)F)c1 (centres unmarked)
3. O=C(Nc1cc(B(O)O)cc2c1C(c1cc(F)ccc1Cl)NC2=O)c1cc(F)cc(Cl)c1 (centres unmarked)
4. Cn1cc(-c2cc(NC(=O)c3cc(F)cc(C(F)(F)F)c3)c3c(n2)C(=O)NC3c2cc(F)ccc2Cl)ccc1=O (centres unmarked)
5. CC(=O)N1CC(C2NC(=O)c3cccc(NC(=O)c4cc(F)cc(C(F)(F)F)c4)c32)C1 (centres unmarked)
6. COCc1cc(NC(=O)N2C[C@](O)(C(F)(F)F)c3cc(F)ccc32)c2c(c1)C(=O)N[C@@H]2c1cc(F)ccc1Cl (single isomer, unassigned)
7. O=C1NC(c2cc(F)ccc2Cl)c2c(NC(=O)C3(O)CCCC(C(F)(F)F)C3)cccc21 (mixture of isomers)

1: ≤ 100 nM; 2: 1000 to 10000 nM; 3: ≤ 100 nM; 4: ≤ 100 nM; 5: 10000 to 100000 nM; 6: 1000 to 10000 nM; 7: 10000 to 100000 nM

Batch lookup, IC50 per entry.
1. O=C1NC(c2cc(F)ccc2Cl)c2c(NC(=O)C3CCCC3C(F)F)cc(Br)cc21 (centres unmarked)
2. CNS(=O)(=O)Cc1cc(NC(=O)c2cc(F)cc(C(F)(F)F)c2)c2c(c1)C(=O)N[C@@H]2c1cc(F)ccc1Cl
3. CC(=O)Nc1cc(NC(=O)N2C[C@](O)(C(F)(F)F)c3cc(F)ccc32)c2c(c1)C(=O)N[C@@H]2c1cc(F)ccc1Cl (single isomer, unassigned)
4. O=C1N[C@@H](c2cc(F)ccc2Cl)c2c(N[C@@H]3COCc4ccccc43)cc(Br)cc21 (racemic)
5. O=C1N[C@@H](c2cc(F)ccc2Cl)c2c(NC(=O)N3C[C@](O)(C(F)(F)F)c4cc(F)ccc43)ccc(-n3nccn3)c21 (single isomer, unassigned)

10000 to 100000 nM
100 to 500 nM
≤ 100 nM
10000 to 100000 nM
≤ 100 nM

Batch lookup, IC50 per entry.
1. O=C(Nc1cc(-c2ccc3ncnn3c2)cc2c1C(c1cc(F)ccc1Cl)N(CO)C2=O)c1cc(F)cc(C(F)(F)F)c1 (centres unmarked)
2. O=C(Nc1cc(Oc2ccncn2)cc2c1C(c1cc(F)ccc1Cl)NC2=O)c1cc(F)cc(C(F)(F)F)c1 (centres unmarked)
3. O=C(Nc1cc(-n2cc(F)cn2)cc2c1C(c1cc(F)ccc1Cl)NC2=O)c1cc(F)cc(C(F)(F)F)c1 (centres unmarked)
4. Cc1ccccc1C1NC(=O)c2cccc(NC(=O)c3ncc4ccc(Cl)cn34)c21 (centres unmarked)

1: 100 to 500 nM; 2: 100 to 500 nM; 3: ≤ 100 nM; 4: 10000 to 100000 nM

Batch lookup, IC50 per entry.
1. O=C(Nc1cc(-c2ccc3ncnn3c2)cc2c1C(c1cc(F)ccc1Cl)NC2=O)c1nc2ccccc2s1 (centres unmarked)
2. O=C1C[C@H](c2cc(NC(=O)c3cc(F)cc(C(F)(F)F)c3)c3c(c2)C(=O)N[C@H]3c2cc(F)ccc2Cl)CN1 (single isomer, unassigned)
3. O=C(/C=C/c1ccccc1)Nc1cccc2c1C(c1cc(F)ccc1Cl)NC2=O (centres unmarked)
4. O=C(Nc1cc(N[C@H]2C[C@@H](O)C2)cc2c1C(c1cc(F)ccc1Cl)NC2=O)c1cc(F)cc(C(F)(F)F)c1 (mixture of isomers)
5. C[C@@H](c1nn[nH]c1C(=O)Nc1cccc2c1[C@H](c1cc(F)ccc1Cl)NC2=O)C(F)(F)F (single isomer, unassigned)

1. 1000 to 10000 nM
2. ≤ 100 nM
3. 10000 to 100000 nM
4. ≤ 100 nM
5. 1000 to 10000 nM

Batch lookup, IC50 per entry.
1. O=C(Nc1cc(-c2cn3cc(C(F)F)nc3cn2)cc2c1C(c1cc(F)ccc1Cl)NC2=O)c1cc(F)cc(C(F)(F)F)c1 (centres unmarked)
2. O=C1NC(c2cc(F)ccc2Cl)c2c(NC(=O)c3c[nH]c4cccc(Cl)c34)cc(Br)cc21 (centres unmarked)

1: ≤ 100 nM; 2: 1000 to 10000 nM
